ASSAY TARGET: Isocitrate dehydrogenase [NADP] cytoplasmic (Homo sapiens, UniProt O75874, R132H)
Sequence (O75874 2-414 R132H limits assumed): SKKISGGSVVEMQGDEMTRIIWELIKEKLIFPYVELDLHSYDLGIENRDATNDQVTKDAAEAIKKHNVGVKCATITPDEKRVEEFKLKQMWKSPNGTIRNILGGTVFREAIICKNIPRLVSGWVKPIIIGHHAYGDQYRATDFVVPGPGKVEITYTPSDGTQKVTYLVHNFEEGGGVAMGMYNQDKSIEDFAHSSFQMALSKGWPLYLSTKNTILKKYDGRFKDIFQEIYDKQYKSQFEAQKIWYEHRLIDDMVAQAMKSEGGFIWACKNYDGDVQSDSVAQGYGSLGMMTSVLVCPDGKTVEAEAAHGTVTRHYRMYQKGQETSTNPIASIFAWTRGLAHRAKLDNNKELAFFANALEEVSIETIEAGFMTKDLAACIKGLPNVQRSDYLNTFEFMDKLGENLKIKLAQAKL
METHOD: Inhibition of IDH1 R132H mutant (unknown origin) assessed as reduction in NADPH consumption using alpha-KG as substrate incubated for 5 mins followed by substrate addition and measured every 1 min
pIC50: −log10 of the molar value.
MEASUREMENT KIND: pIC50

{"STRUCTURE SMILES": "CC1=C[C@@H]2/C=C(\\C)CC[C@@H](O)C(=O)[C@H]3[C@H](C(=O)[C@]24C(=O)N[C@@H](CC(C)C)[C@@H]4[C@@H]1C)[C@@H]1O[C@H]3c2c(C)c(O)c(O)c(O)c21", "BOUND SIGN": "<", "ENDPOINT VALUE": 4.30}
{"STRUCTURE SMILES": "COc1c(O)c(C)c2c(c1O)[C@@H]1O[C@H]2[C@H]2C(=O)[C@H](O)CC/C(C)=C/[C@H]3C=C(C)[C@@H](C)[C@H]4[C@H](CC(C)C)NC(=O)[C@]43C(=O)[C@@H]21", "BOUND SIGN": "=", "ENDPOINT VALUE": 4.76}
{"STRUCTURE SMILES": "COc1c(O)c(C)c2c(c1O)[C@H]1O[C@@H]2[C@H]2C(=O)[C@@]34C(=O)N[C@@H](CC(C)C)[C@@H]3[C@H](C)C(C)=C[C@@H]4/C=C(\\C)CC[C@@H](O)C(=O)[C@@H]21", "BOUND SIGN": "=", "ENDPOINT VALUE": 4.88}
{"STRUCTURE SMILES": "COc1c(O)c(C)c2c(c1O)[C@@H]1O[C@H]2[C@H]2C(=O)[C@@]34C(=O)N[C@@H](CC(C)C)[C@@H]3[C@H](C)C(C)=C[C@@H]4/C=C(\\C)CC[C@@H](O)C(=O)[C@@H]21", "BOUND SIGN": "=", "ENDPOINT VALUE": 4.36}
